# System: Hepatitis C virus
# experiment.description: Antiviral activity against HCV genotype 2a assessed as inhibition of RNA replication at 10 uM by cell-based replicon assay
# Format: functional, Hepacivirus hominis
Exercise: state measured inhibition at 10 µM for each of the compounds provided.
Give bare numbers, in %.

Would you be so kind as to report inhibition at 10 µM for each listed record?
1. CN1CCN([C@@H](c2ccccc2)c2ccc(Cl)cc2)CC1
2. NCCOCCOCCOCCOCCN1CCN(C(c2ccccc2)c2ccc(Cl)cc2)CC1 (racemic)
3. CN1CCN(C(c2ccccc2)c2ccc(Cl)cc2)CC1 (racemic) [CHLORCYCLIZINE]
4. CCN1CCN(C(c2ccc(Cl)cc2)c2ccc(Cl)cc2)CC1

### Response
1: 101; 2: 63.6; 3: 102; 4: 128

Dear reader, for each entry below, please note its inhibition at 10 µM.
1. CN1CCN(C(c2ccc(Cl)cc2)c2ccc(Cl)cc2)CC1
2. OCCOCCN1CCN(C(c2ccc(Cl)cc2)c2ccc(Cl)cc2)CC1

### Response
1. 112
2. 98.8
